# Tested on: Caco-2 colorectal carcinoma cells
# assay-info: MTT conversion assay, Caco-2
# Type: cell-based
# assay-conditions: Homo sapiens, Caco-2, colon, 48 hrs treatment
measurement-type: pIC50
Please note pIC50 is a logarithmic value: minus log10 of concentration in mol/L. Answer with that number alone.

[
  {
    "molecule": "C[C@@]1(O)C=CC(=O)[C@H]1c1ccc(F)c2ccccc12 (stereo in doubt)",
    "measured-result": 5.74
  }
]

[in] Supply pIC50 measured with Caco-2 colorectal carcinoma cells for C[C@@]1(O)C=CC(=O)C1c1ccc2ccccc2c1 (stereo in doubt) .
[out] 5.74

====

IC50 reference
# Tested on: AGE60 ovarian carcinoma cells
# assay-info: MTT conversion assay, AGE60
# Assay type: cell-based, human
# assay-conditions: Homo sapiens, Ovarian carcinoma cell, 48 hrs treatment
Just the number in µM, nothing appended.

[
  {
    "compound": "C[C@@]1(O)C=CC(=O)C1c1ccc2ccccc2c1 (stereo in doubt) [Enone-1]",
    "IC50 / µM": 1
  }
]

[in] Provide one value: measured IC50 of C[C@@]1(O)C=CC(=O)[C@H]1c1ccc(F)c2ccccc12 (stereo in doubt) [Enone-2]
[out] 1.2
